procedure.summary: blood–brain distribution and PK of SYS18 in rats after intraperitoneal injection
run.conditions: SD, rat, brain, ip, 15 mg/kg
measurement.kind: MRT (h)
Please state the figure in h; there is no need to write the unit.

# input Retrieve MRT measured for COc1ccc(-c2nc(-c3ccccc3O)n(-c3ccc(S(N)(=O)=O)cc3)n2)c(O)c1 and print it.
# output 7.15

* * *

procedure.summary: blood–brain distribution and PK of SYS18 in rats after intraperitoneal injection
run.conditions: SD, rat, in vivo, ip, 15 mg/kg
measurement.kind: half-life (h)
Please state the figure in h; there is no need to write the unit.

# input Retrieve half-life measured for COc1ccc(-c2nc(-c3ccccc3O)n(-c3ccc(S(N)(=O)=O)cc3)n2)c(O)c1 [SYS18] and print it.
# output 5.12

* * *

procedure.summary: blood–brain distribution and PK of SYS18 in rats after intraperitoneal injection
run.conditions: SD, rat, plasma, ip, 15 mg/kg
measurement.kind: k el
Units required after the number.

# input Retrieve k el measured for COc1ccc(-c2nc(-c3ccccc3O)n(-c3ccc(S(N)(=O)=O)cc3)n2)c(O)c1 and print it.
# output 6.06e-05 s⁻¹

* * *

procedure.summary: blood–brain distribution and PK of SYS18 in rats after intraperitoneal injection
run.conditions: brain, rats, i.p.
measurement.kind: area under the curve (AUC0‐t) (ng·h/mg)
Please state the figure in ng·h/mg; there is no need to write the unit.

# input Retrieve area under the curve (AUC0‐t) measured for COc1ccc(-c2nc(-c3ccccc3O)n(-c3ccc(S(N)(=O)=O)cc3)n2)c(O)c1 and print it.
# output 3500

* * *

procedure.summary: blood–brain distribution and PK of SYS18 in rats after intraperitoneal injection
run.conditions: SD, rat, in vivo, ip, 15 mg/kg
measurement.kind: Tmax (h)
Please state the figure in h; there is no need to write the unit.

# input Retrieve Tmax measured for COc1ccc(-c2nc(-c3ccccc3O)n(-c3ccc(S(N)(=O)=O)cc3)n2)c(O)c1 and print it.
# output 2

* * *

procedure.summary: blood–brain distribution and PK of SYS18 in rats after intraperitoneal injection
run.conditions: SD, rat, brain/plasma, ip, 15 mg/kg, B/P (ratio of total drug concentration in brain to plasma), rats, 15 mg/kg i.p., at 1–2 h
measurement.kind: Kp

# input Retrieve Kp measured for COc1ccc(-c2nc(-c3ccccc3O)n(-c3ccc(S(N)(=O)=O)cc3)n2)c(O)c1 [SYS18] and print it.
# output > 0.2

* * *

procedure.summary: blood–brain distribution and PK of SYS18 in rats after intraperitoneal injection
run.conditions: SD, rat, plasma, ip, 15 mg/kg
measurement.kind: MRT (h)
Please state the figure in h; there is no need to write the unit.

# input Retrieve MRT measured for COc1ccc(-c2nc(-c3ccccc3O)n(-c3ccc(S(N)(=O)=O)cc3)n2)c(O)c1 [SYS18] and print it.
# output 3.87

* * *

procedure.summary: blood–brain distribution and PK of SYS18 in rats after intraperitoneal injection
run.conditions: SD, rat, plasma, ip, 15 mg/kg, AUC0‐inf_obs, blood, rats, 15 mg/kg i.p.
measurement.kind: AUC (ng·h/mL)
Please state the figure in ng·h/mL; there is no need to write the unit.

# input Retrieve AUC measured for COc1ccc(-c2nc(-c3ccccc3O)n(-c3ccc(S(N)(=O)=O)cc3)n2)c(O)c1 and print it.
# output 8520

* * *

procedure.summary: blood–brain distribution and PK of SYS18 in rats after intraperitoneal injection
run.conditions: SD, rat, brain/plasma, ip, 15 mg/kg, B/P (ratio of total drug concentration in brain to plasma), rats, 15 mg/kg i.p., at 4–6 h
measurement.kind: Kp

# input Retrieve Kp measured for COc1ccc(-c2nc(-c3ccccc3O)n(-c3ccc(S(N)(=O)=O)cc3)n2)c(O)c1 [SYS18] and print it.
# output > 0.4

* * *

procedure.summary: blood–brain distribution and PK of SYS18 in rats after intraperitoneal injection
run.conditions: SD, rat, brain, ip, 15 mg/kg
measurement.kind: k el (s⁻¹)
Please state the figure in s⁻¹; there is no need to write the unit.

# input Retrieve k el measured for COc1ccc(-c2nc(-c3ccccc3O)n(-c3ccc(S(N)(=O)=O)cc3)n2)c(O)c1 and print it.
# output 3.75e-05

* * *

procedure.summary: blood–brain distribution and PK of SYS18 in rats after intraperitoneal injection
run.conditions: SD, rat, plasma, ip, 15 mg/kg, AUC0‐t, blood, rats, 15 mg/kg i.p.
measurement.kind: AUC (ng·h/mL)
Please state the figure in ng·h/mL; there is no need to write the unit.

# input Retrieve AUC measured for COc1ccc(-c2nc(-c3ccccc3O)n(-c3ccc(S(N)(=O)=O)cc3)n2)c(O)c1 [SYS18] and print it.
# output 8440

* * *

procedure.summary: blood–brain distribution and PK of SYS18 in rats after intraperitoneal injection
run.conditions: SD, rat, plasma, ip, 15 mg/kg
measurement.kind: Cmax (ng/mL)
Please state the figure in ng/mL; there is no need to write the unit.

# input Retrieve Cmax measured for COc1ccc(-c2nc(-c3ccccc3O)n(-c3ccc(S(N)(=O)=O)cc3)n2)c(O)c1 and print it.
# output 1850

* * *

procedure.summary: blood–brain distribution and PK of SYS18 in rats after intraperitoneal injection
run.conditions: SD, rat, brain, ip, 15 mg/kg
measurement.kind: Cmax (ng/g)
Please state the figure in ng/g; there is no need to write the unit.

# input Retrieve Cmax measured for COc1ccc(-c2nc(-c3ccccc3O)n(-c3ccc(S(N)(=O)=O)cc3)n2)c(O)c1 [SYS18] and print it.
# output 464

* * *

procedure.summary: blood–brain distribution and PK of SYS18 in rats after intraperitoneal injection
run.conditions: SD, rat, plasma, ip, 15 mg/kg, area under the curve (AUC0‐t), blood, rats
measurement.kind: AUC
Units required after the number.

# input Retrieve AUC measured for COc1ccc(-c2nc(-c3ccccc3O)n(-c3ccc(S(N)(=O)=O)cc3)n2)c(O)c1 and print it.
# output 8440 ng·h/mL

* * *

procedure.summary: blood–brain distribution and PK of SYS18 in rats after intraperitoneal injection
run.conditions: SD, rat, plasma, ip, 15 mg/kg
measurement.kind: CL/F (mL/min/kg)
Please state the figure in mL/min/kg; there is no need to write the unit.

# input Retrieve CL/F measured for COc1ccc(-c2nc(-c3ccccc3O)n(-c3ccc(S(N)(=O)=O)cc3)n2)c(O)c1 and print it.
# output 16.7

Hello, the source for this data is paper PMC11537802, in case you need it.
